Each entry below carries its reported IC50.
# measuredOn: UniProtKB Q9BV86
# Sequence (Q9BV86 whole entry): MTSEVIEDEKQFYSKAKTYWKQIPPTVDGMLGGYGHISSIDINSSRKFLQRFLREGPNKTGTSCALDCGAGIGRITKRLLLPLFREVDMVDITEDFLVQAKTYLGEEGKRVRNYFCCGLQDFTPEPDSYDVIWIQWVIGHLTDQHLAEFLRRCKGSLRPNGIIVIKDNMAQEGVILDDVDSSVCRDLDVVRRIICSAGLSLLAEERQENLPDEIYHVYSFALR
Answer with a number only, understood to be in nM.

INSERT INTO assay_data (smiles, recordedvalue) VALUES
  ('CC(C)(NC(=O)O[C@@H]1CN2CCC1CC2)c1csc(-c2ccc(C(F)(F)F)cc2)n1', 3200);

Next, consider the following compound.
Ask: Query IC50 on UniProtKB Q9BV86 for `CC(C)(NC(=O)O[C@@H]1CN2CCC1CC2)c1csc(-c2ccc(Cl)cc2)n1`
Reply: 910
